Where do the numbers come from? From PubChem BioAssay (NCI).

Experiment: NCI Yeast Anticancer Drug Screen. Data for the rad50 strain (AID 155);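 further: 0% = growth of vehicle-only cultures of the same strain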
Details: S. cerevisiae rad50 strain growth inhibition; at 50.0 µM; hits give high values
About 79,000 compounds went through this panel and 15% of them were active in at least one assay; those are over-represented in the sample as a whole.
Examples of compounds with documented growth inhibition follow.
Measurement Kind: growth inhibition (%)

[[record]]
compound = "Cc1cc(O)oc(=O)c1"
measurement_kind = "growth inhibition"
quantity_unit = "%"
reading = -7.7

[[record]]
compound = "CCOC(=O)c1ccc(NC(=O)Oc2ccc(C=O)cc2OC)cc1"
measurement_kind = "growth inhibition"
quantity_unit = "%"
reading = 5.7

[[record]]
compound = "NC(CCC(=O)O)C(=O)NC(Cc1c[nH]c2ccccc12)C(=O)O (stereo not given)"
measurement_kind = "growth inhibition"
quantity_unit = "%"
reading = -12.7

[[record]]
compound = "CCOC(=O)Nc1nc2c(s1)c([N+](=O)[O-])cn2C"
measurement_kind = "growth inhibition"
quantity_unit = "%"
reading = 11.6

[[record]]
compound = "COc1ccc(-c2ccccc2C(=O)O)cc1"
measurement_kind = "growth inhibition"
quantity_unit = "%"
reading = -2.65


---

Assay: NCI Yeast Anticancer Drug Screen. Data for the mec2-1 strain (AID 157)
Settings: S. cerevisiae mec2-1 strain, at 50.0 µM, hits give high values
The panel holds about 79,000 compounds, 15% with a hit somewhere; the sample as a whole holds those more often.
Measurement Kind: growth inhibition (%)

[[record]]
sample_smiles = "CNC(=O)c1ccccc1C(=N)c1ccccc1"
reading = -5.4

[[record]]
sample_smiles = "Cc1nc(Cc2ccc(O)c(O)c2)c(C)o1"
reading = 13.9

[[record]]
sample_smiles = "Clc1ccc(N=Cc2ccccc2)cn1"
reading = 22.1

[[record]]
sample_smiles = "CSc1ccc(NC(=O)CCc2ccccc2)cc1"
reading = 6.45

[[record]]
sample_smiles = "Cc1ccc2c(Nc3ccc(NS(C)(=O)=O)cc3C)c3ccccc3nc2c1"
reading = -27.4


---

Experiment: NCI Yeast Anticancer Drug Screen. Data for the cln2 rad14 strain (AID 165);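 further: 0% = growth equal to vehicle treated cultures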
Conditions: S. cerevisiae cln2 rad14 strain, at 50.0 µM
Method: Growth inhibition of yeast strains with defined genetic alterations is measured as a screen for potential anti-cancer activity. Selected strains with alterations in DNA damage repair or cell cycle control were exposed to compounds and growth inhibition was measured relative to vehicle treated controls. The strain used in this assay is cln2 rad14
About 79,000 compounds went through this panel and 15% of them were active in at least one assay; those are over-represented in the sample as a whole. Calls of active or inactive are those of the source. Rule as the data show it: active = growth inhibition above about 70%; inactive = the rest.
Outcomes: active, inactive

[[record]]
compound = "O=C1c2ccc(O)cc2OC(c2ccc(O)c(O)c2)C1O (centres undefined)"
discrete_label = "inactive"

[[record]]
compound = "O=C(O)C(CCc1ccccn1)c1ccccc1 (centres undefined)"
discrete_label = "inactive"

[[record]]
compound = "CC(=O)Nc1ccc(C=O)s1"
discrete_label = "inactive"

[[record]]
compound = "Nc1ccn(C2OC(CCl)C(O)C2O)c(=O)n1 (centres undefined)"
discrete_label = "inactive"

[[record]]
compound = "Cc1cccc(C(=O)OC2CCCCC2)c1"
discrete_label = "inactive"

[[record]]
compound = "O=C1CNC(=O)N1CCCl"
discrete_label = "inactive"

[[record]]
compound = "CSc1ncc2c(C#N)c3sc4ccccc4n3c(=O)c2n1"
discrete_label = "inactive"

[[record]]
compound = "CCOC(=O)C(=N\\Nc1cc(C)cc(C)c1)/C(C)=N\\NC(N)=S"
discrete_label = "inactive"

[[record]]
compound = "COc1cccc2c1[C@H]1CO[C@H]3C4C[C@H](C(=O)O)C([C@@H](C2)N13)N4C (some centres undefined)"
discrete_label = "inactive"

[[record]]
compound = "CC1CCC(C(C)C)C(OC(=O)c2ccccc2O)C1 (centres undefined)"
discrete_label = "inactive"

[[record]]
compound = "COc1cc2oc(-c3ccc(O)cc3)cc(=O)c2c(OC)c1OC"
discrete_label = "inactive"

[[record]]
compound = "Clc1c(Cl)c(Cl)c(CSCc2c(Cl)c(Cl)c(Cl)c(Cl)c2Cl)c(Cl)c1Cl"
discrete_label = "inactive"

[[record]]
compound = "O=C([O-])[C+](C=Cc1cccc2ccccc12)C(=O)O"
discrete_label = "inactive"

[[record]]
compound = "COc1cc(C=C(C#N)C#N)ccc1OC(=O)c1cc(OC)c(OC)c(OC)c1"
discrete_label = "inactive"

[[record]]
compound = "Nc1nc(N)c2nc(-c3ccc(O)cc3)c(-c3ccc(O)cc3)nc2n1"
discrete_label = "inactive"

[[record]]
compound = "CC(=O)Nc1cc(F)c2c(c1F)Cc1cc(F)ccc1-2"
discrete_label = "inactive"

[[record]]
compound = "CCc1cccc(CC)c1NC(=O)c1ccc(C)cc1"
discrete_label = "inactive"

[[record]]
compound = "O=CC(CO)CC(C=O)n1cnc2c(=O)[nH]cnc21 (centres undefined)"
discrete_label = "inactive"

[[record]]
compound = "CCOC(=O)NC(=O)c1cn(CCN2CCN(c3ncnc4nc[nH]c34)CC2)c(=O)[nH]c1=O"
discrete_label = "inactive"

[[record]]
compound = "CC(=O)OC(C)(C#N)C(C)(C#N)OC(C)=O (centres undefined)"
discrete_label = "inactive"

[[record]]
compound = "COc1cc2c(cc1OC)C(O)C(O)(CO)C(C(=O)O)C2c1cc(OC)c(OC)c(OC)c1 (centres undefined)"
discrete_label = "inactive"

[[record]]
compound = "COc1ccc(-c2cc(=O)c3ccc(O)cc3o2)c(OC)c1OC"
discrete_label = "inactive"

[[record]]
compound = "O=C(/C=C/c1ccccc1)N(Cc1ccccc1)c1ccccc1"
discrete_label = "active"

[[record]]
compound = "CN(C)CCNC1c2ccccc2-c2ccccc21"
discrete_label = "inactive"

[[record]]
compound = "CC1=CC(=O)C(C(C)C)=CC1=O"
discrete_label = "inactive"

[[record]]
compound = "CC(C)=C/C(C)=N/Nc1ccc([N+](=O)[O-])cc1[N+](=O)[O-]"
discrete_label = "inactive"

[[record]]
compound = "COc1c2c(c(Cc3c4c(c(OC)c5c3OCO5)OC(C)C4)c3c1OCO3)CC(C)O2 (centres undefined)"
discrete_label = "inactive"

[[record]]
compound = "CC(=O)Nc1c(C(N)=O)cnn1-c1ccccc1"
discrete_label = "inactive"

[[record]]
compound = "COC(=O)N/C(C)=N/OCc1ccccc1"
discrete_label = "inactive"

[[record]]
compound = "O=c1[nH]nc(Cc2ccccc2)n1/N=C/c1cccnc1"
discrete_label = "inactive"

[[record]]
compound = "c1ccc(C2(c3ccccc3)SC2(c2ccccc2)c2ccccc2)cc1"
discrete_label = "inactive"

[[record]]
compound = "O=CC(=O)c1ccc(F)cc1"
discrete_label = "inactive"

[[record]]
compound = "O=S(=O)(O)c1cccc2nsnc12"
discrete_label = "inactive"

[[record]]
compound = "CC(C)OC(=O)Oc1ccc(Cl)cc1Cl"
discrete_label = "inactive"

